Exercise: for every item that follows, state its recorded INHIBITION.
# Tested on: Plasmodium berghei
# test-summary: Screen against P. berghei liver stage (PbLuc), transformed with Luciferase, at 10uM
# Format: functional, HepG2
# condition: tested at 10 uM
Among all 69,000 compounds or so, about 8,600 (12%) showed an effect of 50% or more. The entries come from a sample that favours strong results as a whole.
Answers are plain numbers, in %.

Example cases with answers are listed next.
| compound | unit-of-measurement | INHIBITION |
| --- | --- | --- |
| COc1ccc(CCCC(=O)N2C[C@H](C3CC3)[C@@H](N(C)C)C2)cc1 | % | 6.28 |
| Cc1cc(C)n(CCC(=O)N2CCCC(c3nc(C(C)C)no3)C2)n1 (stereo unspecified) | % | 30.8 |
| Cc1c(C(=O)NS(=O)(=O)c2ccsc2)cnn1CC(C)C | % | 53.8 |

# batch: return INHIBITION for each of the 2 compounds below
1. CSCCC(=O)N1CCC(CCC(=O)NCC2CCCO2)CC1 (stereo unspecified)
2. O=C(O)COc1ccccc1CN1CCCC1c1cnccn1 (stereo unspecified)

8.51
47.2

Entry "Cc1nc2sccn2c1CN(CCCN(C)C)Cc1ccccn1" , INHIBITION reported as -12.5
